Where these numbers come from: patent EP1079826B1

- SUBJECT_OF_TEST: CDK5/ p35 (Homo sapiens, UniProt Q00535)
- Sequence (Q00535 whole entry, species assumed): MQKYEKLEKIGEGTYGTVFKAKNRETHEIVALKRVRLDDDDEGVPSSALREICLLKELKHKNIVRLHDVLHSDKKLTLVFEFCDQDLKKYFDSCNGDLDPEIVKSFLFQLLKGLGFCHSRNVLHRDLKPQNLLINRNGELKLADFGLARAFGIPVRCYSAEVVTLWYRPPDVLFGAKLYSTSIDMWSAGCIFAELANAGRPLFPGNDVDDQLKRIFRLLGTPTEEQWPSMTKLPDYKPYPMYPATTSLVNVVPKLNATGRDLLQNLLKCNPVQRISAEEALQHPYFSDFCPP
- Sequence (Q15078 whole entry partner, species assumed): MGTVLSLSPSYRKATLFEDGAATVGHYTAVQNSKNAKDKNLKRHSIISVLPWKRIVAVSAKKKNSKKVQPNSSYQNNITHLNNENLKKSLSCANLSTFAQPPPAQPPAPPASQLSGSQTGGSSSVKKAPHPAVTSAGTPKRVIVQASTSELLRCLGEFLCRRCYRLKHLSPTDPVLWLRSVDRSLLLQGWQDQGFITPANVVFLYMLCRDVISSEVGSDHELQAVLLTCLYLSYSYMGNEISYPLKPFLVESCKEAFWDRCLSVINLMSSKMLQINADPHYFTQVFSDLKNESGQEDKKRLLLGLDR
- PROTOCOL_SUMMARY: kinase inhibition selectivity, CDK5/p35
- Type: biochemical
MEASURED_QUANTITY: pIC50
# pIC50 = -log10(concentration in molar units)

Request: Please look at this compound and report its pIC50: O=C1Nc2ccc(Cl)cc2/C1=C1/Nc2ccccc2C1=O [Example 4, 5-Chloroindirubine]
Result: 6.10

---

- SUBJECT_OF_TEST: CDK4/ cyclin D1 (Homo sapiens, UniProt P11802)
- Sequence (P11802 whole entry, species assumed): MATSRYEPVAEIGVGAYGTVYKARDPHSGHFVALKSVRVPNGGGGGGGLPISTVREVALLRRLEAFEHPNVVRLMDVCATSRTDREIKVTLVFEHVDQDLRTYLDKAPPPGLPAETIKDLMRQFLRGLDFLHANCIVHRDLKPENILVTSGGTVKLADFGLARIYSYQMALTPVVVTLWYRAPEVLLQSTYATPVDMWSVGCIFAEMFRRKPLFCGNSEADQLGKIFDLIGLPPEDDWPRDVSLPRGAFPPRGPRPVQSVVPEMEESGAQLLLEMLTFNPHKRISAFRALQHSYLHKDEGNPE
- Sequence (P24385 whole entry partner, species assumed): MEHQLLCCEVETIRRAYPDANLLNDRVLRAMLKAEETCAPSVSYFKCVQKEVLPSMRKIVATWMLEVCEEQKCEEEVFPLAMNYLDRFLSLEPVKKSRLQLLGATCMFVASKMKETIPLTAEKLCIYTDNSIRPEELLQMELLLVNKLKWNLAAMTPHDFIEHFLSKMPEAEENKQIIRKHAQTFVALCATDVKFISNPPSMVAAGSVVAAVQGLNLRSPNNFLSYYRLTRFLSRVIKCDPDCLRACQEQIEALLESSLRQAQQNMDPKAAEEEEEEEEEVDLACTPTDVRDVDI
- PROTOCOL_SUMMARY: kinase inhibition selectivity, CDK4/cyclin D1
- Format: biochemical
MEASURED_QUANTITY: IC50 (µM)
Record the value in µM, omitting the unit from your answer.

Request: Consider the compound O=C1Nc2ccc(Cl)cc2/C1=C1/Nc2ccccc2C1=O [Example 4, 5-Chloroindirubine] . State its measured IC50.
Result: 6.5

---

- SUBJECT_OF_TEST: CDK2/ cyclin A (Homo sapiens, UniProt P24941)
- PROTOCOL_SUMMARY: biochemical
# reported IC50; entries follow
State the answer as a number, implicitly in nM.

Request: Tell me IC50 reported for `O=C1/C(=C2\Nc3ccccc3C2=O)Nc2ccccc21`
Result: 70000

Request: Specify reported IC50 for the compound shown: `O=C1Nc2ccc(Cl)cc2/C1=C1/Nc2ccccc2C1=O`
Result: 750

Request: Identify IC50 associated with the compound `O=C1Nc2ccccc2C1=C1Nc2ccccc2C1=NO`
Result: 440

---

- SUBJECT_OF_TEST: p34^cdc2/cyclinB
- PROTOCOL_SUMMARY: p34cdc2/cyclin B kinase assay (histone H1 phosphorylation, [γ-32P] ATP)
- Format: biochemical, starfish (Marthasterias glacialis)
- CONDITION_DETAILS: cdc2 kinase, Table 3; read-out: IC50 cdc2
Measured IC50 accompanies every entry in the list below.
Form entry: value (nM) — number only.

Request: Please report the measured IC50 for O=C1Nc2ccc(S(=O)(=O)O)cc2C1=C1Nc2ccccc2C1=O [Example 11, Indirubine-5-sulfonic acid]
Result: 55

Request: Read off the recorded IC50 for O=C1Nc2ccc(I)cc2/C1=C1/Nc2ccccc2C1=O [Example 2, 5-Iodoindirubine]
Result: 300

Request: Query IC50 for Cc1ccc2c(c1)C(=C1Nc3ccccc3C1=O)C(=O)N2 [Example 6, 5-Methylindirubine]
Result: 800

Request: Return reported IC50. Input compound: O=C1Nc2ccccc2/C1=C1/Nc2ccc(Br)cc2C1=O [Example 8, 5'-Bromoindirubine]
Result: 6500

Request: Entry O=C1Nc2ccc(Br)cc2/C1=C1/Nc2ccccc2C1=O [Example 3, 5-Bromoindirubine] needs its IC50 filled in; supply it.
Result: 350

Others:
Request: # return recorded IC50 for entry O=C1Nc2ccc(Cl)cc2/C1=C1/Nc2ccccc2C1=O [Example 4, 5-Chloroindirubine]
Result: 400

Request: Tell me its IC50 given O=C1Nc2ccc([N+](=O)[O-])cc2/C1=C1/Nc2ccccc2C1=O [Example 7, 5-Nitroindirubine] as the entry.
Result: 2200

Request: Output IC50 of O=C1Nc2ccc(Br)cc2/C1=C1/Nc2ccc(Br)cc2C1=O [Example 9, 5,5'-Dibromoindirubine]
Result: 7000

Request: Answer with the recorded IC50 of O=C1Nc2ccc(F)cc2/C1=C1/Nc2ccccc2C1=O [Example 5, 5-Fluoroindirubine] only.
Result: 2000

---

- SUBJECT_OF_TEST: p34^cdc2/cyclinB
- PROTOCOL_SUMMARY: p34cdc2/cyclin B kinase assay (histone H1 phosphorylation, [γ-32P] ATP)
- Format: biochemical, starfish (Marthasterias glacialis)
- CONDITION_DETAILS: read-out: IC50-value for the p34^cdc2/cyclinB complex
MEASURED_QUANTITY: IC50
Answer by giving the amount and then stating its unit.

Request: Retrieve IC50 measured for `O=C1Nc2ccccc2/C1=C1\C(=O)Nc2ccccc21` and print it.
Result: 80 µM

---

- SUBJECT_OF_TEST: p34^cdc2/cyclinB
- PROTOCOL_SUMMARY: p34cdc2/cyclin B kinase assay (histone H1 phosphorylation, [γ-32P] ATP)
- Type: biochemical, starfish (Marthasterias glacialis)
- CONDITION_DETAILS: calculated from dose response curves, Table 4; read-out: IC50 CDK1/ cyclin B
MEASURED_QUANTITY: IC50 (µM)
Your answer should be a plain number; it is taken to be in µM.

Request: Quote IC50 reported for `O=C1Nc2ccc(Cl)cc2/C1=C1/Nc2ccccc2C1=O` please.
Result: 0.4

Let us move to another entry and its IC50.
Request: Look up IC50 of `O=C1Nc2ccc(S(=O)(=O)O)cc2C1=C1Nc2ccccc2C1=O` and report it.
Result: 0.055

---

- SUBJECT_OF_TEST: CDK2/ cyclin E (Homo sapiens, UniProt P24941)
- PROTOCOL_SUMMARY: biochemical
Form field: IC50 (one value per entry).

Request: Please indicate IC50 recorded for `O=C1Nc2ccc(Cl)cc2/C1=C1/Nc2ccccc2C1=O`
Result: 0.55 µM

Request: Name the recorded IC50 of the item `O=C1Nc2ccccc2C1=C1Nc2ccccc2C1=NO` in your answer.
Result: 0.25 µM

---
Request: Identify IC50 associated with the compound `O=C1/C(=C2\Nc3ccccc3C2=O)Nc2ccccc21`
Result: > 1000 µM

---

- SUBJECT_OF_TEST: CDK5/ p35 (Homo sapiens)
- PROTOCOL_SUMMARY: kinase inhibition selectivity, CDK5/p35
- Assay type: biochemical
- CONDITION_DETAILS: calculated from dose response curves, Table 4; read-out: IC50 CDK5/ p35
MEASURED_QUANTITY: IC50 (nM)
// return numeric value only (unit: nM, not printed)

Request: Note IC50 for the compound shown: `O=C1Nc2ccc(S(=O)(=O)O)cc2C1=C1Nc2ccccc2C1=O`
Result: 65
